Listed next: entries and their corresponding protein stability index.
B1: ANKRD40 (parent)
chain: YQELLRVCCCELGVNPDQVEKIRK

variants of: B1; test: protein stability index of a GFP-peptide fusion (GPS, HEK-293T) (PSI 1-6); higher = more stable; conditions: c terminus: a fixed tail appended;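 also: lentivirally expressed fusions sorted by FACS into six bins by GFP to DsRed ratio, PSI derived from sequencing read proportions per bin multiplied by bin number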
Answer as a number with no unit attached.

Guide cases for protein stability index, answers given:
V7Q	1.97
Q2H	1.77
V19R	1.6
K21C	1.82
V7R	1.41
Y1R	2.16
V7L	1.46
E3R	1.21
R23Q	1.4
E11V	1.56

Param item = I22S ; retrieve measured protein stability index.
2.06

Param item = R6N ; retrieve measured protein stability index.
2.26

Param item = K24R ; retrieve measured protein stability index.
1.6

Param item = G13S ; retrieve measured protein stability index.
3.16

Param item = G13W ; retrieve measured protein stability index.
2.84
